Target: T1, human tissue factor (TF), membrane-bound on cells (human, UniProt P13726 33-295)
T1 construct: whole, on cells; also called cellular TF
Assay: FACS, MDA-MB-231 cells, 30 µg/mL
Experimental: Cells were resuspended in PBS (2×10⁶ cells/ml), put in 96-well V-bottom plates (50 μl/well). 50 μl of serially diluted HuMab in FACS buffer (PBS supplemented with 0.1% BSA and 0.02% Na-azide) was added to the cells and incubated for 30 minutes on ice. […] After 30 minutes on ice (in the dark), cells were washed three times, and specific binding of the HuMabs was detected by flow cytometry on a FACSCalibur (BD Biosciences). […]
Measurement label: Max MFI
Give bare numbers.

Reference set, count: 5
>  <Binder>
anti-TF HuMab 011 (antibody, V domains shown, Human monoclonal antibody from HuMab mice; also called HuMab-TF-11) VH: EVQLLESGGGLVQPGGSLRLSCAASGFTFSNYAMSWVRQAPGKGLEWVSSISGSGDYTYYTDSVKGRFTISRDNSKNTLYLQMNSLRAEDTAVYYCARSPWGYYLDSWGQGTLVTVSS VL: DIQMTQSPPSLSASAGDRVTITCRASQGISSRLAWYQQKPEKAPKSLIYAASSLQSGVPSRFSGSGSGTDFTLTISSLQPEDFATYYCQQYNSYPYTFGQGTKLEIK

>  <Reported result>
2140

$$$$
>  <Binder>
anti-TF HuMab 111 (antibody, V domains shown, Human monoclonal antibody from HuMab mice) VH: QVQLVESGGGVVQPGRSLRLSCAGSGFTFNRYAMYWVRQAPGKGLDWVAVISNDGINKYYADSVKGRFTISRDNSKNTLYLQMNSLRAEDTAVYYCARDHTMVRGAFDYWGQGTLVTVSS VL: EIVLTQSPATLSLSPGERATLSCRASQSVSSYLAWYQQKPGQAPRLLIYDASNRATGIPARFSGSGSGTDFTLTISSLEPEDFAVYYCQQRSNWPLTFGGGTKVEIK

>  <Reported result>
1770

$$$$
>  <Binder>
anti-TF HuMab 044 (antibody, V domains shown, Human monoclonal antibody from HuMab mice) VH: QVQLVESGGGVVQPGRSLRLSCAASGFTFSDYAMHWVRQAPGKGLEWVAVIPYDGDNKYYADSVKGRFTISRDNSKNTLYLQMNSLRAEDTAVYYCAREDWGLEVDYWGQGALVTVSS VL: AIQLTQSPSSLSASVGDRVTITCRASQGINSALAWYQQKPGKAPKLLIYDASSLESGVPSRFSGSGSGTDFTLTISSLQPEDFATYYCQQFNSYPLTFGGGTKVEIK

>  <Reported result>
1880

$$$$
>  <Binder>
anti-TF HuMab 013 (antibody, V domains shown, Human monoclonal antibody from HuMab mice; also called HuMab-TF-13) VH: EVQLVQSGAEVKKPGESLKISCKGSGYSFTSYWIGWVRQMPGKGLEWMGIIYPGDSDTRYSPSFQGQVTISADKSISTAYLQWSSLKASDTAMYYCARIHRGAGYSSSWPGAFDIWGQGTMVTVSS VL: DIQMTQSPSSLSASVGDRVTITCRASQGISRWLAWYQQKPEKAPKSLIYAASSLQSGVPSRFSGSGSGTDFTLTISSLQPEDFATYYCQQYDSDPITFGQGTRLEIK

>  <Reported result>
2450

$$$$
>  <Binder>
anti-TF HuMab 101 (antibody, V domains shown, Human monoclonal antibody from HuMab mice) VH: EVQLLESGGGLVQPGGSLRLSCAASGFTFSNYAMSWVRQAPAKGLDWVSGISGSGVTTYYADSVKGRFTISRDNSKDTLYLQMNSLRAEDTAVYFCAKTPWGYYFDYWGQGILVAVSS VL: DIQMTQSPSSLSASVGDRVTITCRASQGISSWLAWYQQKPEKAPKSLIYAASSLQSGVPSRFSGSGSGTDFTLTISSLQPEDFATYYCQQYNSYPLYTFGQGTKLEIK

>  <Reported result>
2070

$$$$

Okay, here is my list. What is Max MFI for each of these?
1. anti-TF HuMab 109 (antibody, V domains shown, Human monoclonal antibody from HuMab mice) VH: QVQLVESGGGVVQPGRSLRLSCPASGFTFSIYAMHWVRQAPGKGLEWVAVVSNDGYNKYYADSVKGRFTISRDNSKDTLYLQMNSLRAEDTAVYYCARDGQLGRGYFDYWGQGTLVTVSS VL: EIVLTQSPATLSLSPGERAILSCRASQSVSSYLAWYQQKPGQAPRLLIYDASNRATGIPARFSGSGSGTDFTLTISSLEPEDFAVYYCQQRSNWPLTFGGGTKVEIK
2. anti-TF HuMab 087-Lg6 (antibody, V domains shown, Human monoclonal antibody from HuMab mice) VH: EVQLVQSGAEVKKPGESLKISCKGSGYSFTSCWIGWVRQMPGKGLEWMGIIYPGDSDTRYSPSFQGQVTISADKSISTAYLQWSSLKASDTAMYYCARHKLGMDHDAFDIWGQGTMVTVSS VL: DIQMTQSPSSLSASVGDRVTITCRASQGISSWLAWYQQKPEKAPKSLIYAASSLQSGVPSRFSGSGSGTDFTLTISSLQPEDFATYYCQQYNSYPPTFGQGTTVEVK
3. anti-TF HuMab 003 (antibody, V domains shown, Human monoclonal antibody from HuMab mice; also called HuMab-TF-003) VH: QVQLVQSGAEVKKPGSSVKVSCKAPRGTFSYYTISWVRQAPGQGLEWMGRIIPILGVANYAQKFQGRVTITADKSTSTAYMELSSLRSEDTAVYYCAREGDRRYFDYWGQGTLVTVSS VL: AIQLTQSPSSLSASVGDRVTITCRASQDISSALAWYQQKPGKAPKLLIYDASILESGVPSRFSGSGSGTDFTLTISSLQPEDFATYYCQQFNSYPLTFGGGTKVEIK
4. anti-TF HuMab 092-A09 (antibody, V domains shown, Human monoclonal antibody from HuMab mice) VH: EVQLLESGGGLVQPGGSLRLSCAASGFTFNNYAMSWVRQAPGKGLEWVSSISGSGGRTYYADSVKGRFTISRDNSKNTLFLQMNSLRAEDTAVYYCAKTPWGYYFDYWGQGTLVTVSS VL: DIQMTQSPSSLSASVGDRVTITCRASQGISSRLAWYQQKPEKAPKSLIYAASSLQSGVPSRFSGSGSGTDFTLTISSLQPEDFATYYCQQYNSYPYTFGQGTKLEIK

1. 2050
2. 1110
3. 1800
4. 2290
